Readings of GI50 for the listed compounds
Test system: SF-539
ASSAY_DETAILS: NCI tumour cell line growth inhibition, 48 h
Active and inactive are the calls of the source. Rule as the data show it: active = GI50 up to about 1.1 µM and inactive = higher.
PARAMETER_MEASURED: GI50

COc1ccc(-[n+]2nc(S(=O)(=O)O)c(/C=C/c3ccc(N(C)C)cc3)cc2C#N)cc1 :: > 100 µM (inactive)
OCC(O)C(O)C(O)C(/C=N\Nc1ncnc2ccc(Br)cc12)=N/Nc1ncnc2ccc(Br)cc12 (stereo not drawn) :: 8.3 µM (inactive)
C/C1=C\CC[C@@]2(C)O[C@@H]2C[C@@H](C2(C)CO2)CC/C(C)=C/CC1 (stereo partly drawn) :: 21.7 µM (inactive)

###

Here, each record is paired with measured GI50 data.
System: HOP-62
ASSAY_DETAILS: NCI tumour cell line growth inhibition, 48 h
Active and inactive are the calls of the source. Rule as the data show it: active = GI50 up to about 1.1 µM and inactive = higher.
PARAMETER_MEASURED: GI50

O=C(O)c1c(CC(Cc2ccccc2)C(=O)O)ccc2c1CCC2 (stereo not given) :: > 100 µM (inactive)
O=c1oc2c(ccc3occc32)c(N2CCCCC2)c1-c1ccccc1 :: > 100 µM (inactive)
C/C(=N/O)c1cccc(Nc2nc3ccc(Cl)cc3c3[nH]c4ccccc4c23)c1 :: 2.77 µM (inactive)
Cc1cc(S(=O)(=O)n2ccnc2Oc2cccc(Cl)c2)c(SSc2cc(Cl)c(C)cc2S(=O)(=O)n2ccnc2Oc2cccc(Cl)c2)cc1Cl :: 9.57 µM (inactive)
COc1cc(C)c(C(=O)/C=C/c2cc(OC)c(O)c(OC)c2)cc1O :: 22.7 µM (inactive)

###

Tested on: HOP-62
ASSAY_DETAILS: NCI tumour cell line growth inhibition, 48 h
Activity calls are given as the source filed them. No stated cut-off is given here; in the data, active = GI50 up to about 1.1 µM and inactive = higher.
Possible outcomes: yes (active), no (inactive)

Cc1ccc(C2=Nc3cccc4cccc(c34)N2)cc1 :: no
Cc1cn(CCCCCCC2=NCCCN2)c(=O)[nH]c1=O :: no
CC1C(=O)CC(c2cccs2)N(N=O)C1c1cccs1 (stereo not given) :: no
CC(=O)C(=Cc1cn(C)c(=O)n(C)c1=O)C(C)=O :: no
O=Cc1ccc2[nH]c(=O)oc2c1 :: no
CC(C)(C)c1ccc(OCCOc2ccc(C(C)(C)C)cc2N)c(N)c1 :: no
C/C=C1\CC(C(=O)OCC)CCCCCCC1=O (stereo not given) :: no
C/C(=N\N=C(/S)N(C)C)c1cccnn1 :: yes
COC(=O)CC(C(C(=O)OCc1ccccc1)C(C)O)N1C(=O)OC(c2ccccc2)C1c1ccccc1 (stereo not given) :: no
COc1ccc2[nH]cc(CCNC(=O)[C@H](Cc3ccccc3)NC(=O)[C@@H](NCC(F)(F)F)C(C)C)c2c1 :: no
CCOC(=O)C1c2[nH]c3ccccc3c2CCN1C(=O)c1ccc(OC)o1 (stereo not given) :: no
Cc1ccc(F)cc1NC(=O)O/N=C(\Cl)C(C)C :: no
O=C(CN1CCCCC1)c1ccc2c(c1)Sc1ccccc1O2 :: no
Cc1ccc(S(=O)(=O)NC(=O)Nc2ccc(C(=O)O)cc2)cc1 :: no
Cc1ccc(C(=O)Nc2ccc(S(=O)(=O)O)c3cc(S(=O)(=O)O)cc(S(=O)(=O)O)c23)cc1NC(=S)Nc1cc(C(=O)Nc2ccc(S(=O)(=O)O)c3cc(S(=O)(=O)O)cc(S(=O)(=O)O)c23)ccc1C :: no
